- Test system: Human rhinovirus sp.
- test method notes: Mean of MIC's was determined for the five types of virus like HRV-2, HRV-1A,HRV-22,HRV-41 and HRV-50
- Assay type: functional
parameter: MIC (µM)

Solved cases (4 shown):
{"chemical string": "C=CCc1cc(C2=NCCO2)ccc1OCCCCCc1cc(C)no1", "system": "Human rhinovirus sp.", "parameter": "MIC", "assay result": 1.1}
{"chemical string": "Cc1cc(CCCCCCCOc2ccc(C3=NCCO3)cc2Cl)on1", "system": "Human rhinovirus sp.", "parameter": "MIC", "assay result": 2.3}
{"chemical string": "COc1cc(C2=NCCO2)ccc1OCCCCCc1cc(C)no1", "system": "Human rhinovirus sp.", "parameter": "MIC", "assay result": 4.5}
{"chemical string": "Cc1cc(CCCCCOc2ccc(C3=NCCO3)cc2C(F)(F)F)on1", "system": "Human rhinovirus sp.", "parameter": "MIC", "assay result": 0.4}

a. Cc1cc(CCCCCCOc2ccc(C3=NCCO3)cc2Cl)on1
b. Cc1cc(CCCCCOc2ccc(C3=NCCO3)cc2N)on1
c. Cc1cc(CCCCCOc2ccc(C3=NCCO3)cc2[N+](=O)[O-])on1
d. Cc1cc(CCCCCOc2ccc(C3=NCCO3)cc2Br)on1
[Q] Sort the 4 molecules by MIC; largest first, smallest last. Lab note: final answer is the ordered label list.
[A] b, a, c, d
(b: 7 µM, a: 1.4 µM, c: 0.7 µM, d: 0.4 µM)

###

- Tested on: rhinovirus A21
- test method notes: Tested for antirhinoviral activity against the rhinovirus serotype 21
- Format: functional
- measurement parameters: Rhinovirus A
parameter: MIC (µM)

{"chemical string": "CCc1cc(C2=NCCO2)ccc1OCCCCCc1cc(C)no1", "assay result": 0.04}

a. COc1cc(C2=NCCO2)ccc1OCCCCCc1cc(C)no1
b. Cc1cc(CCCCCOc2ccc(C3=NCCO3)cc2)on1
c. Cc1cc(CCCCCOc2ccc(C3=NCCO3)cc2C(F)F)on1
[Q] Sort the 3 compounds by MIC; largest first, smallest last. Lab note: final answer is the ordered label list.
[A] b, a, c

###

- Test system: rhinovirus A2
- test method notes: Antiviral activity determined by ability to inhibit the HRV-2( human rhinovirus type -2) virus by plaque reduction assay in vitro
- Type: functional
- measurement parameters: Rhinovirus A
parameter: MIC (µM)

Solved cases (3 shown):
{"chemical string": "CCc1cc(C2=NCCO2)ccc1OCCCCCc1cc(C)no1", "system": "rhinovirus A2", "MIC [µM]": 0.06}
{"chemical string": "Cc1cc(CCCCCOc2ccc(C3=NCCO3)cc2)on1", "system": "rhinovirus A2", "MIC [µM]": 1.1}
{"chemical string": "Cc1cc(CCCCCOc2ccc(C3=NCCO3)cc2Cl)on1", "system": "rhinovirus A2", "MIC [µM]": 0.06}

I. Cc1cc(CCCCCOc2ccc(C3=NCCO3)cc2N(C)C)on1
II. Cc1cc(CCCCCOc2ccc(C3=NCCO3)c(Cl)c2)on1
III. CCC(=O)Nc1cc(C2=NCCO2)ccc1OCCCCCc1cc(C)no1
[Q] Sort the 3 compounds by MIC; largest first, smallest last. Lab note: final answer is the ordered label list.
[A] III, II, I
(III: 7.3 µM, II: 0.4 µM, I: 0.2 µM)

###

- System: Human rhinovirus sp.
- test method notes: Mean of MIC's was determined for the five types of virus like HRV-2, HRV-1A,HRV-22,HRV-41 and HRV-50
- Format: functional
parameter: MIC (µM)

{"chemical string": "Cc1cc(CCCCCOc2ccc(C3=NCCO3)cc2Cl)on1", "system": "Human rhinovirus sp.", "parameter": "MIC", "assay result": 1}
{"chemical string": "Cc1cc(CCCCCOc2ccc(C3=NCCO3)c(Cl)c2)on1", "system": "Human rhinovirus sp.", "parameter": "MIC", "assay result": 6.5}
{"chemical string": "CCc1cc(C2=NCCO2)ccc1OCCCCCc1cc(C)no1", "system": "Human rhinovirus sp.", "parameter": "MIC", "assay result": 1.8}
{"chemical string": "CC(=O)c1cc(C2=NCCO2)ccc1OCCCCCc1cc(C)no1", "system": "Human rhinovirus sp.", "parameter": "MIC", "assay result": 1.1}
{"chemical string": "Cc1cc(CCCCOc2ccc(C3=NCCO3)cc2Cl)on1", "system": "Human rhinovirus sp.", "parameter": "MIC", "assay result": 1}

I. Cc1cc(CCCCCOc2ccc(C3=NCCO3)cc2C)on1
II. C=Cc1cc(C2=NCCO2)ccc1OCCCCCc1cc(C)no1
III. Cc1cc(CCCCCOc2ccc(C3=NCCO3)cc2)on1
[Q] Sort the 3 molecules by MIC; largest first, smallest last. Lab note: final answer is the ordered label list.
[A] III, I, II

###

- Test system: Human rhinovirus sp.
- test method notes: Mean of MIC's was determined for the five types of virus like HRV-2, HRV-1A,HRV-22,HRV-41 and HRV-50
- Type: functional
parameter: MIC

Solved cases (2 shown):
{"chemical string": "Cc1cc(CCCCCCCOc2ccc(C3=NCCO3)cc2)on1", "MIC": "> 18 µM"}
{"chemical string": "Cc1cc(CCCCCOc2ccc(C3=NCCO3)cc2C(C)C)on1", "MIC": "> 50 µM"}

[Q] Please report the recorded MIC for `Cc1cc(CCCCCOc2ccc(C3=NCCO3)cc2N(C)C)on1` .
[A] > 17 µM

[Q] Please report the recorded MIC for `Cc1cc(CCCCCOc2ccc(C3=NCCO3)cc2C=O)on1` .
[A] > 2.3 µM

[Q] Please report the recorded MIC for `Cc1cc(CCCCCOc2ccc(C3=NCCO3)cc2C(F)F)on1` .
[A] 1 µM

[Q] Please report the recorded MIC for `Cc1cc(CCCCCOc2ccc(C3=NCCO3)c(C)c2)on1` .
[A] > 18 µM

[Q] Please report the recorded MIC for `Cc1cc(CCCCCOc2ccc(C3=NCCO3)cc2F)on1` .
[A] > 9.3 µM
